# Test system: NCI-H23 lung
# Protocol notes: NCI-60 one-dose screen, 48 h
# Experimental parameters: 10 µM unless noted
# Experimental: Growth inhibition of the NCI-H23 human Non-Small Cell Lung tumor cell line is measured as a screen for anti-cancer activity. Cells are grown in 96 well plates and exposed to the test compound for 48 hours. Compounds are tested at a single concentration, which is 10^-5 M for most compounds. The reported endpoint is percent growth (GI% or GIPRCNT), where numbers from 0 - 100% represent growth inhibition, and numbers from -100% - 0 represent cell death. […]
This is part of a sample that, as a whole, favours compounds with a hit. Of some 83,000 tested, about 20% had one in any assay. Active and inactive are the calls of the source. How the source made its calls: active means growth percent below 10; inactive means the rest.
Assign a class; possible classes are YES for active, NO for inactive

Ask | Given O=C(Nc1cccc(F)c1)c1cc(=O)[nH]c2cc(Br)ccc12 , state the outcome it received in this test.
Reply | NO

Ask | How about O=C(O)CC1CCCCC1c1ccccc1 (stereo not given) ?
Reply | NO

Ask | How about Cc1ccc(S(=O)(=O)Oc2ccc([N+](=O)[O-])cc2[N+](=O)[O-])cc1 ?
Reply | NO

Ask | How about O=C(Nc1ccc(Cl)c(C(F)(F)F)c1)Nc1ccc(-c2cccnc2)cc1N1CCC(CO)CC1 ?
Reply | NO

Ask | How about O=C(Nc1cccc2ccccc12)c1cc2ccccc2cc1O ?
Reply | YES

Ask | How about CSc1nc2c(c(=O)n1C)C1(C(=O)N(Cc3ccccc3)c3ccccc31)c1c(nc(SC)n(C)c1=O)N2 ?
Reply | NO

Ask | How about COc1cc(NCc2ccccc2O)c2ncccc2c1 ?
Reply | NO

Ask | How about O=C(Oc1ccc(Cl)cc1[N+](=O)[O-])Oc1ccc(Cl)cc1[N+](=O)[O-] ?
Reply | NO

Ask | How about CCN(CC)c1ccc2cc(C(Nc3ccc(C)cc3)c3nnnn3C(C)(C)C)c(=O)oc2c1 (stereo not given) ?
Reply | NO

Ask | How about Cc1nc(Cl)c2c(n1)N(C)c1ccc(Cl)cc1C(C)C2 (stereo not given) ?
Reply | NO

====

# System: OVCAR-5 ovarian
# Protocol notes: NCI-60 one-dose screen, 48 h (100 = growth as untreated, 0 = no growth, -100 = all killed)
# Experimental parameters: 10 µM unless noted
# Method: Growth inhibition of the OVCAR-5 human tumor cell line is measured as a screen for anti-cancer activity. Cells are grown in 96 well plates and exposed to the test compound for 48 hours. Compounds are tested at a single concentration, which is 10^-5 M for most compounds. The reported endpoint is percent growth (GI% or GIPRCNT), where numbers from 0 - 100% represent growth inhibition, and numbers from -100% - 0 represent cell death. For example, a value of 40 represents 60% growth inhibition. […]
Compounds without any hit were thinned out: in the full panel of roughly 83,000, 20% have a hit.
Task for the reader: assign each of the following molecules its reported growth.
Note: unit % is implicit; provide only the numeric part.

Ask | Return growth measured with OVCAR-5 ovarian given this molecule: CCOC(=O)/C(C#N)=C(\C)CCc1ccccc1
Reply | 108

Ask | How about NC(=O)c1cccc(-c2ccc(S(=O)(=O)Nc3ccc4c(c3)N(C(=O)C3CC3)CCC4)cc2)c1 ?
Reply | 64.8

Ask | How about Cc1ccc(-c2cn(C/C=C3\C=CN(S(=O)(=O)c4ccccc4)CC3)nn2)cc1 ?
Reply | 120

Ask | How about Nc1nc(Nc2ccccc2)c2ncn(Cc3cc4c(cc3Br)OCO4)c2n1 ?
Reply | 32.1

Ask | How about CCCCC1COc2cccc3c2N1C=C/C3=C\C(=O)n1ccc2ccccc21 (stereo unspecified) ?
Reply | 94.5

Ask | How about CCOC(=O)C(=Cc1ccccc1[N+](=O)[O-])C(=O)OCC ?
Reply | -31.5

Ask | How about Oc1ccc(N=Nc2nccs2)c(O)c1 ?
Reply | 87.5

Ask | How about c1nc(N2CCOCC2)c2[nH]ccc2n1 ?
Reply | 116

Ask | How about Cc1nc(-c2ccccc2)sc1CC#N ?
Reply | 105

Ask | How about CCOC(=O)c1cc(C#N)n2ncc3ccccc3c12 ?
Reply | 84.7

Ask | How about COc1ccc2nc3c(cc2c1)C(=O)CC(c1ccccc1)C3 (stereo unspecified) ?
Reply | 61.2

====

# System: NCI-H226 lung
# Protocol notes: NCI-60 one-dose screen, 48 h
# Experimental parameters: 10 µM unless noted
This is part of a sample that, as a whole, favours compounds with a hit. Of some 83,000 tested, about 20% had one in any assay. The source made the active and inactive calls. How the source made its calls: active means growth percent below 10; inactive means the rest.
Assign a class; possible classes are class 1 = active, class 0 = inactive

Ask | Given Cc1ccc(S(=O)(=O)NCCCNc2nccc(-c3c(-c4cccc(F)c4)nc4occn34)n2)cc1 , state the outcome it received in this test.
Reply | class 0

Ask | How about CC1(C)[C@@H](NOCCCN)CC[C@]2(C)[C@H]3C(=O)C=C4[C@@H]5C[C@](C)(C(=O)O)CC[C@]5(C)CC[C@@]4(C)[C@]3(C)CC[C@@H]12 ?
Reply | class 1

Ask | How about CCNC(=O)N1CCc2c(Cl)c3c(c(OC)c2[C@@H]1[C@H]1OCc2c1ccc(OC)c2OC)OCCO3 ?
Reply | class 0

Ask | How about Cc1cnc([C@]23CC[C@@H](C)[C@H](C)[C@H]2C2=CC[C@@H]4[C@@]5(C)Cc6c([nH]c7ccccc67)C(C)(C)[C@@H]5CC[C@@]4(C)[C@]2(C)CC3)o1 ?
Reply | class 0

Ask | How about COc1ccc2c3ccnc(C(F)(F)F)c3n(CCCCN)c2c1 ?
Reply | class 0

Ask | How about O=[N+]([O-])c1cc([N+](=O)[O-])c(C(F)(F)F)cc1NN=C(c1ccc(O)cc1)c1ccc(O)cc1 ?
Reply | class 0

Ask | How about CC1(C)S[C@@H]2[C@H](NC(=O)[C@H](C(=O)O)c3cccs3)C(=O)N2[C@H]1C(=O)O ?
Reply | class 0

====

# Test system: HS 578T breast
# Protocol notes: NCI-60 one-dose screen, 48 h (100 = growth as untreated, 0 = no growth, -100 = all killed)
# Experimental parameters: 10 µM unless noted
About 83,000 compounds went through this panel and 20% of them were active in at least one assay; those are over-represented in the sample as a whole. Active and inactive are the calls of the source. The calls were made as follows: active = growth percent below 10; inactive = the rest.
Reported property: growth

Ask | Would you kindly share the measured growth for CCCCCCCCCCCCCCCCCCNC(=S)N/N=C/c1ccc(OC)c(OC)c1 ?
Reply | 100% (inactive)

Ask | How about Cc1cc(N2CCCCCC2)nc(N2CCN(CC(=O)Nc3ccc4c(ccn4Cc4ccccc4)c3)CC2)n1 ?
Reply | 47.2% (inactive)

Ask | How about CC(C)c1ccc(C(=O)Nc2sc3c(c2C#N)CCC(=O)C3)cc1 ?
Reply | 25.4% (inactive)

Ask | How about COc1ccc(-c2cc(-c3ccc(Cl)cc3)nc(NCCCCNc3ccnc4cc(Cl)ccc34)n2)cc1 ?
Reply | 81.5% (inactive)

Ask | How about Cc1cnc(N)nc1OCC(C)(C)CNC(=O)c1cccc(-c2ccc(S(=O)(=O)Nc3ccc4c(c3)N(C(=O)C3CC3)CCC4)cc2)c1 ?
Reply | 64.4% (inactive)

Ask | How about CCC(C)[C@H](NC(=O)NC(=O)NC(=O)CI)C(=O)OC (some centres undefined) ?
Reply | 84.9% (inactive)

Ask | How about O=C(N/N=C\c1cc(Cl)ccc1O)N/N=C/c1cc(Cl)ccc1O ?
Reply | 34.6% (inactive)

Ask | How about C=C(C)[C@@H]1CC[C@]2(C(=O)OC)CC[C@]3(C)[C@H](CC[C@@H]4[C@@](C)(CCc5nn[nH]n5)[C@H](C(=C)C)CC[C@]43C)[C@@H]12 ?
Reply | -31% [100 µM] (active)

Ask | How about O=c1cc(-c2ccccc2)oc2c(O)c(O)ccc12 ?
Reply | 91.4% (inactive)

====

# Tested on: NCI/ADR-RES ovarian
# Protocol notes: NCI-60 one-dose screen, 48 h (100 = growth as untreated, 0 = no growth, -100 = all killed)
# Experimental parameters: 10 µM unless noted
Compounds without any hit were thinned out: in the full panel of roughly 83,000, 20% have a hit.
Task for the reader: assign each of the following compounds its reported growth.
Note: unit % is implicit; provide only the numeric part.

Ask | Would you kindly share the measured growth for CCCCCN(CCCCC)CCCCCCCCN1CCCc2ccccc21 ?
Reply | 92.2

Ask | How about CC(C)(C)c1cc(C(=O)Nc2ccccc2C(=O)NCCN)cc(C(C)(C)C)c1 ?
Reply | 23.2

Ask | How about CC(=O)O.CC(=O)O.O.[Fe] ?
Reply | 102

Ask | How about O=C(O)c1cccc(CN2CCN(c3cc4c(cc3F)c(=O)c(C(=O)O)cn4C3CC3)CC2)c1O ?
Reply | 101

Ask | How about O=C(OCc1ccc2c(Cl)cc(Cl)c(O)c2n1)N1CCNCC1 ?
Reply | 9.22

Ask | How about N#Cc1c(N2CCOCC2)nc(=S)[nH]c1-c1ccco1 ?
Reply | 40.2

Ask | How about CCCCCCNC(=O)Nc1ncnc2c1ncn2-c1ccccc1 ?
Reply | 91.1

Ask | How about CCN(CCO)CCC(=O)c1ccc([N+](=O)[O-])cc1 ?
Reply | 102

Ask | How about O=C(N/N=C/c1c(Cl)cccc1Cl)c1cccc(Nc2ccnc(C(F)(F)F)c2)c1 ?
Reply | 102

Ask | How about CC(C)[N+](C)(C)CC(O)COc1cccc2ccccc12 (stereo unspecified) ?
Reply | 108

Ask | How about CCOC(=O)C(=Cc1ccccc1[N+](=O)[O-])C(=O)OCC ?
Reply | -29.4
